meta.source: patent US20240279318A1

Recorded koff values for a group of binders are listed next.
Measurement Target: T1, AFP158/HLA-A*02:01 complex (human)
T1 construct: flowed as analyte in SPR
Assay Protocol: SPR, crude scFv captured, pMHC analyte;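 further: complex injected at several concentrations over the chip, association phase then running buffer for dissociation, KD derived from on- and off-rates computed from both curves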
Parameter Measured: koff

[[record]]
binder = "AS170036 VL1VH1-57M98F108S (scFv, also called 78-AS170036 VL1VH1-57M98F108S) scFv: QSALTQPRSVSGSPGQSVTISCAGTSSDVGSENYVSWYQQHPGKAPKLMIYQVNKRASGVPDRFSGSKSGNTASLTISGLQAEDEADYYCASYRSSDFNIVFGGGTKLTVLGGGGSGGGGSGGGGSEVQLVESGGGLVQPGGSLRLSCAASGFTFSSYAMSWVRQAPGKGLEWVSTINSGTGMPYYADSVKGRFTISRDNSKNTLYLQMNSLRAEDTAVYYCAKNFFDGSWFLSPPAMDYWGQGTLVTVSSHHHHHH"
result = "0.0024 s⁻¹"

[[record]]
binder = "AS170036 VL1VH1-57K98Q108D (scFv, also called 74-AS170036 VL1VH1-57K98Q108D) scFv: QSALTQPRSVSGSPGQSVTISCAGTSSDVGSENYVSWYQQHPGKAPKLMIYQVNKRASGVPDRFSGSKSGNTASLTISGLQAEDEADYYCASYRSSDQNIVFGGGTKLTVLGGGGSGGGGSGGGGSEVQLVESGGGLVQPGGSLRLSCAASGFTFSSYAMSWVRQAPGKGLEWVSTINSGTGKPYYADSVKGRFTISRDNSKNTLYLQMNSLRAEDTAVYYCAKNFFDGSWFLDPPAMDYWGQGTLVTVSSHHHHHH"
result = "0.00077 s⁻¹"

[[record]]
binder = "AS170036 VL1VH1-56N98F108S (scFv, also called 51-AS170036 VL1VH1-56N98F108S) scFv: QSALTQPRSVSGSPGQSVTISCAGTSSDVGSENYVSWYQQHPGKAPKLMIYQVNKRASGVPDRFSGSKSGNTASLTISGLQAEDEADYYCASYRSSDFNIVFGGGTKLTVLGGGGSGGGGSGGGGSEVQLVESGGGLVQPGGSLRLSCAASGFTFSSYAMSWVRQAPGKGLEWVSTINSGTNSPYYADSVKGRFTISRDNSKNTLYLQMNSLRAEDTAVYYCAKNFFDGSWFLSPPAMDYWGQGTLVTVSSHHHHHH"
result = "0.0028 s⁻¹"

[[record]]
binder = "AS170036 VL1VH1-56Y98Q108D (scFv, also called 47-AS170036 VL1VH1-56Y98Q108D) scFv: QSALTQPRSVSGSPGQSVTISCAGTSSDVGSENYVSWYQQHPGKAPKLMIYQVNKRASGVPDRFSGSKSGNTASLTISGLQAEDEADYYCASYRSSDQNIVFGGGTKLTVLGGGGSGGGGSGGGGSEVQLVESGGGLVQPGGSLRLSCAASGFTFSSYAMSWVRQAPGKGLEWVSTINSGTYSPYYADSVKGRFTISRDNSKNTLYLQMNSLRAEDTAVYYCAKNFFDGSWFLDPPAMDYWGQGTLVTVSSHHHHHH"
result = "0.00044 s⁻¹"

[[record]]
binder = "AS170036 VL1VH1-56Y98F108S (scFv, also called 42-AS170036 VL1VH1-56Y98F108S) scFv: QSALTQPRSVSGSPGQSVTISCAGTSSDVGSENYVSWYQQHPGKAPKLMIYQVNKRASGVPDRFSGSKSGNTASLTISGLQAEDEADYYCASYRSSDFNIVFGGGTKLTVLGGGGSGGGGSGGGGSEVQLVESGGGLVQPGGSLRLSCAASGFTFSSYAMSWVRQAPGKGLEWVSTINSGTYSPYYADSVKGRFTISRDNSKNTLYLQMNSLRAEDTAVYYCAKNFFDGSWFLSPPAMDYWGQGTLVTVSSHHHHHH"
result = "0.00074 s⁻¹"

